Test system: PyIESI-1 RRM domain (Plasmodium yoelii PY17X_0911200 aa 795-956, GST fusion)
Assay: RBNS R-value (6-mer enrichment in protein-bound RNA vs input library) (ratio); higher = stronger binding preference; the methods of the paper give 50 / 100 / 500 nM protein instead
Settings: protein concentration: 1000 nM
Whole data set: some 4,100 sequences, median “RBNS R-value (6-mer enrichment in protein-bound RNA vs input library)” near 0.96, cut for the highest 2% near 2.4. Only a selection was taken, and the highest values are over-represented in it overall.
Each entry below carries its recorded RBNS R-value.

Recorded results for 3 sequences are shown here.
- biopolymer sequence: "AGCCUU"
  measurement target: "PyIESI-1 RRM domain (Plasmodium yoelii PY17X_0911200 aa 795-956, GST fusion)"
  RBNS R-value: 0.982
- biopolymer sequence: "CUCACG"
  measurement target: "PyIESI-1 RRM domain (Plasmodium yoelii PY17X_0911200 aa 795-956, GST fusion)"
  RBNS R-value: 0.993
- biopolymer sequence: "UCCUCG"
  measurement target: "PyIESI-1 RRM domain (Plasmodium yoelii PY17X_0911200 aa 795-956, GST fusion)"
  RBNS R-value: 0.988

## Task Item CAUUCC : provide RBNS R-value
## Result 0.997

Data provenance: the supplement of paper PMC13392028
